Compound Structure	melting point
O=C(Cn1c(-c2ccc(F)cc2)nc2ccccc21)Nc1cccc(F)c1	182.3 to 182.7 °C
Cc1ccc2c(c1)nc(-c1ccc(F)cc1)n2CC(=O)N1CCSCC1	199 to 200.9 °C
CN(C)C(=O)Cn1c(-c2ccc(F)cc2)nc2ccccc21	182.3 to 183.1 °C
Cc1ccc2nc(-c3ccc(F)cc3)n(CC(=O)Nc3ccccc3)c2c1	202.5 to 205 °C

====

Target: GABA-A receptor (benzodiazepine site, α1/γ2 interface)
Experiment: Radioligand binding assay for the GABA-A receptor ([3H]-flunitrazepam displacement, rat brain homogenate)
Conditions: pKi = -log Ki, n.a. = no affinity
Assay Metric: pKi GABA-A

Compound Structure	Observed Measurement
COc1ccc(NC(=O)Cn2c(-c3ccc(F)cc3)nc3ccccc32)cc1	loss of affinity
COc1ccccc1NC(=O)Cn1c(-c2ccc(F)cc2)nc2ccccc21	loss of affinity
